assay: chemical genetic growth profiling, strain panel (AID 1159580);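 also: tested at 20 µM; growth read once vehicle control cultures reached saturation at 30 °C; 1 = growth at the plate median or of vehicle wells; lower values mean less growth of the strain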; conditions: S. cerevisiae deletion strains, growth OD, locus YML124C, strain tub3, hits give low values
The whole screen tested about 5,500 compounds, of which about 2,000 (36%) were called active. Not shown: some 18% with an inconclusive outcome. This is one part of the list.
metricName: normalized growth

O=C(NCO)c1cccnc1 ... 1
Oc1c(Cl)cc(Cl)cc1Sc1cc(Cl)cc(Cl)c1O ... 0.989
COC(=O)/C(=C1\OC(=O)C(c2ccccc2)=C1O)c1ccccc1 ... 0.993
CC(Cc1cccc(C(F)(F)F)c1)NCCOC(=O)c1ccccc1 (centres undefined) ... 1.02
Nc1ccc(S(=O)(=O)NC(=O)c2ccccc2)cc1 ... 1.01
COc1ccccc1OCC(O)CO (centres undefined) ... 0.996
NS(=O)(=O)c1cc2c(cc1Cl)NC(CSCc1ccccc1)=NS2(=O)=O ... 0.995
CC(=O)O[C@H]1CC[C@@]2(C)C(=CC(=O)C3C4CCC(C(C)CCCC(C)C)[C@@]4(C)CCC32)C1 (some centres undefined) ... 0.988
CC(=O)Oc1cccc(O)c1 ... 1.01
OC[C@H]1O[C@@H](O[C@H]2[C@H](O)[C@@H](O)[C@@H](O)O[C@@H]2CO)[C@H](O)[C@@H](O)[C@@H]1O ... 1.01
CC(C)CCCC(C)C1CC[C@@]2(C)C3=C(CC[C@]12C)[C@@]1(C)CC[C@H](O)C(C)(C)C1CC3 (some centres undefined) ... 0.982
CCCc1c(OCCCCc2nn[nH]n2)ccc(C(C)=O)c1O ... 0.996
OC[C@H]1O[C@@](CO)(O[C@@H]2O[C@H](CO)[C@@H](O)[C@H](O)[C@H]2O)[C@@H](O[C@@H]2O[C@H](CO)[C@@H](O)[C@H](O)[C@H]2O)[C@@H]1O ... 1.01
CC(C)=CCc1c2c(c3occ(-c4ccc(O)cc4)c(=O)c3c1O)C=CC(C)(C)O2 ... 0.994
C=C(C)C1(O)OC(=O)C=C1OC (centres undefined) ... 0.984
Cc1ccc2c(c1)C1(C)CCCC(C)(C(=O)O)C1CC2 (centres undefined) ... 1
O=C1NC(O)=NC1(c1ccccc1)c1ccccc1 ... 1.01
CCCN(CCC)S(=O)(=O)c1ccc(C(=O)O)cc1 ... 1.01
OC[C@H]1O[C@@H](O[C@@H]2[C@@H](CO)O[C@](O)(CO)[C@H]2O)[C@H](O)[C@@H](O)[C@H]1O ... 1

* * *

Items are presented alongside their recorded normalized growth.
experiment: chemical genetic growth profiling, strain panel (AID 1159580); details: S. cerevisiae deletion strains, growth OD, locus YLR262C, strain YPT6, hits give low values
Out of some 5,500 compounds screened, about 2,000 (36%) were called active. Roughly 18% stayed inconclusive and do not appear here. The list shows a part of the results.
metricName: normalized growth

CN(C)CCCN1c2ccccc2Sc2ccccc21 ... 1.23 (inactive)
COC(=O)/C(=C1\OC(=O)C(c2ccccc2)=C1O)c1ccccc1 ... 1 (inactive)
CC12CCC(O)CC1CCC1C2[C@H](O)CC2(C)C(C3=CC(=O)OC3)CCC12O (stereo partly drawn) ... 1.16 (inactive)

* * *

experiment: chemical genetic growth profiling, strain panel (AID 1159580);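 also: tested at 20 µM; growth read once vehicle control cultures reached saturation at 30 °C; 1 = growth at the plate median or of vehicle wells; lower values mean less growth of the strain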; settings: S. cerevisiae deletion strains, growth OD, locus YHR013C, strain ard1, hits give low values
Out of some 5,500 compounds screened, about 2,000 (36%) were called active. Roughly 18% stayed inconclusive and do not appear here. The list shows a part of the results.
metricName: normalized growth

CC(=O)O[C@H]1CC[C@@]2(C)C(C[C@@H](OC(C)=O)[C@@]3(C)C4=CC(=O)O[C@@H](c5ccoc5)[C@]4(C)CCC23)C1(C)C (stereo not given in full) ... 0.978
CC(C)CCCC(C)[C@H]1CCC2C3C(=O)C=C4C[C@@H](O)CC[C@]4(C)C3CC[C@@]21C (stereo not given in full) ... 1.02
CC(=O)O[C@H]1CCC2(C)C3=C(CCC2C1(C)C)[C@]1(C)CCC(C(C)CCC=C(C)C)[C@@]1(C)CC3 (stereo not given in full) ... 1.02
CC(=O)O[C@@H]1C=C[C@@]2(C)C(C[C@@H](OC(C)=O)[C@@]3(C)C4=CC(=O)O[C@@H](c5ccoc5)[C@]4(C)CCC23)C1(C)C (stereo not given in full) ... 0.973
CC(=O)O[C@@H]1CC2C(C)(C)C(=O)C=C[C@]2(C)C2CC[C@]3(C)C(=CC(=O)O[C@H]3c3ccoc3)[C@@]21C (stereo not given in full) ... 0.988

* * *

test: chemical genetic growth profiling, strain panel (AID 1159580);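 also: tested at 20 µM; growth read once vehicle control cultures reached saturation at 30 °C; 1 = growth at the plate median or of vehicle wells; lower values mean less growth of the strain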; conditions: S. cerevisiae deletion strains, growth OD, locus YNL183C, strain NPR1, hits give low values
The campaign covered roughly 5,500 compounds. About 2,000 (36%) were called active. About 18% were inconclusive and are not listed. This is one part of the list.
metricName: normalized growth

CC(C)=CCc1c2c(c3occ(-c4ccc(O)cc4)c(=O)c3c1O)C=CC(C)(C)O2 ... 0.908 (inactive)
C[n+]1ccccc1/C=N/O ... 0.924 (inactive)
NC1=NCCN1CC(=O)O ... 0.919 (inactive)
Cc1ccc(-n2cccc2)c(NS(=O)(=O)c2ccc(-c3ccno3)s2)c1 ... 0.9 (inactive)
COC(=O)/C(=C1\OC(=O)C(c2ccccc2)=C1O)c1ccccc1 ... 0.899 (inactive)
CCN(CC)CCOCCOC(=O)C1(c2ccccc2)CCCC1 ... 0.915 (inactive)
NC(COCc1ccccc1)C(=O)O (configuration not stated) ... 0.904 (inactive)
CC1(C)CC2C1CC[C@]1(CBr)CCC3C(CC(=O)O)C(=O)O[C@@]32C1 (some centres not stated) ... 0.924 (inactive)
CCCSc1ccc2nc(NC(=O)OC)[nH]c2c1 ... 0.896 (inactive)
CC(C)(C)NC[C@H](O)c1ccc(O)c(CO)c1 ... 0.912 (inactive)
O=S(=O)(Oc1ccc(-c2csnn2)cc1)c1ccccc1Cl ... 0.896 (inactive)
CC(Cc1cccc(C(F)(F)F)c1)NCCOC(=O)c1ccccc1 (configuration not stated) ... 0.895 (inactive)

* * *

assay: chemical genetic growth profiling, strain panel (AID 1159580);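 also: tested at 20 µM; growth read once vehicle control cultures reached saturation at 30 °C; 1 = growth at the plate median or of vehicle wells; lower values mean less growth of the strain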; conditions: S. cerevisiae deletion strains, growth OD, locus YDL074C, strain BRE1, hits give low values
About 2,000 (36%) of roughly 5,500 compounds were called active. About 18% were inconclusive and are not listed. The list shows a part of the results.
metricName: normalized growth

CC(=O)Oc1cccc(O)c1 ... 0.996
NC1=NCCN1CC(=O)O ... 0.924
CN(C)CCCN1c2ccccc2Sc2ccc(C(F)(F)F)cc21 ... 1.01
CC(=O)Oc1ccc(O)cc1 ... 1
COc1ccc(C2Sc3ccccc3N(CCN(C)C)C(=O)C2OC(C)=O)cc1 (stereo not drawn) ... 1.04
CC1=CC(=O)c2ccccc2C1=O ... 0.108
CN(C)CCCN1c2ccccc2CCc2ccccc21 ... 1.02
OC[C@H]1O[C@@H](O[C@H]2[C@H](O)[C@@H](O)[C@@H](O)O[C@@H]2CO)[C@H](O)[C@@H](O)[C@@H]1O ... 1.09
CC(=O)O[C@H]1CCC2(C)C3=C(CCC2C1(C)C)[C@@]1(C)CC[C@@H](C(C)CCC=C(C)C)[C@]1(C)CC3 (stereo partly drawn) ... 0.973
C[C@H]1c2cccc(O)c2C(O)=C2C(=O)[C@]3(O)C(O)=C(C(N)=O)C(=O)[C@@H](N(C)C)[C@@H]3[C@@H](O)[C@@H]21 ... 0.963
CN(C)CCCN1c2ccccc2Sc2ccccc21 ... 1.01
CN(C)[C@@H]1C(=O)C(C(N)=O)=C(O)[C@@]2(O)C(=O)C3=C(O)c4c(O)ccc(Cl)c4[C@@H](O)[C@H]3C[C@@H]12 ... 0.994
NCCCCCCNS(=O)(=O)c1cccc2c(Cl)cccc12 ... 1.02
C=C1c2c(Cl)ccc(O)c2C(O)=C2C(=O)[C@]3(O)C(O)=C(C(N)=O)C(=O)[C@@H](N(C)C)[C@@H]3[C@@H](O)[C@H]12 ... 0.946
CN(C)CCCN1c2ccccc2CCc2ccc(Cl)cc21 ... 0.674
CC(=O)O[C@@H]1CC2C(C)(C)[C@H](O)C=C[C@]2(C)C2CC[C@]3(C)C(=CC(=O)O[C@H]3c3ccoc3)[C@@]21C (stereo partly drawn) ... 0.999
CC1(C)CC2C1CC[C@]1(CBr)CCC3C(CC(=O)O)C(=O)O[C@@]32C1 (stereo partly drawn) ... 1
CCOC(=O)[C@H](CCc1ccccc1)N[C@@H](C)C(=O)N1CCC[C@H]1C(=O)O ... 1.02
CC[N+](C)(C)c1cccc(O)c1 ... 0.984
CNCCCC12CCC(c3ccccc31)c1ccccc12 ... 0.97
Cc1cc(=O)[nH]c(=S)[nH]1 ... 1.03
COc1ccc([C@@H]2CC(=O)c3c(O)cc(O[C@@H]4O[C@H](CO[C@H]5O[C@@H](C)[C@H](O)[C@@H](O)[C@H]5O)[C@@H](O)[C@H](O)[C@H]4O)cc3O2)cc1O ... 0.984
CCCSc1ccc2nc(NC(=O)OC)[nH]c2c1 ... 0.866
CC(N=C(NC#N)Nc1ccncc1)C(C)(C)C (stereo not drawn) ... 1.05
CC(=O)OC1CCC2(C)C(CC(OC(C)=O)C3(C)C4=CC(=O)OC(c5ccoc5)C4(C)CCC23)C1(C)C (stereo not drawn) ... 0.791
CC(C)CCCC(C)C1CC[C@@]2(C)C3=C(CC[C@]12C)[C@@]1(C)CC[C@H](O)C(C)(C)C1CC3 (stereo partly drawn) ... 1.06
CO[C@H]1CC(O[C@@H]2/C(C)=C/C[C@@H]3C[C@@H](C[C@]4(CC[C@H](C)[C@@H](C5CCCCC5)O4)O3)OC(=O)[C@@H]3C=C(C)/C(=N\O)[C@H]4OC/C(=C\C=C\[C@@H]2C)[C@]43O)O[C@@H](C)C1O (stereo partly drawn) ... 0.979
CC(=O)Oc1ccc(/C=C/c2cc(OC(C)=O)cc(OC(C)=O)c2)cc1 ... 0.982

Data provenance: PubChem BioAssay AID1159580
